molecular target: Phospholipase A2, membrane associated (Homo sapiens); test: Inhibition of human non-pancreatic secretory phospholipase A2 (PLA2) in a chromogenic assay
experimental readout: pIC50
Please report pIC50 as the negative decimal logarithm of the molar concentration, giving only the number.

Check out these entries, answers already filled in.
INSERT INTO measurements (smi, experimental_readout, value_reported) VALUES
  ('Cc1c(CC(N)=O)c2ccc(OCCCC(=O)NN)cc2n1Cc1ccccc1', 'pIC50', 5.90),
  ('COC(=O)COc1cccc2c1c(CC(N)=O)c(C)n2Cc1ccccc1', 'pIC50', 5.86);

Here is the next item to consider.
Record summary for "NC(=O)Cc1c(Cl)n(Cc2ccccc2)c2ccc(OCCCC(=O)O)cc12" : reported pIC50 = 7.11

----------
target: Phospholipase A2, membrane associated (Homo sapiens); assay: Inhibition of human non-pancreatic secretory phospholipase A2 (PLA2) in a chromogenic assay
experimental readout: IC50 (µM)
Supply the numeric figure in µM, leaving out any unit text.

Sample answers from the record:
INSERT INTO results (smi, target_system, unit_string, value_reported) VALUES
  ('CSc1c(CC(N)=O)c2cc(OCCCC(=O)O)ccc2n1Cc1ccccc1', 'Phospholipase A2, membrane associated (Homo sapiens)', 'µM', 0.162),
  ('Cc1c(CC(=O)NN)c2cc(OCCCC(=O)O)ccc2n1Cc1ccccc1', 'Phospholipase A2, membrane associated (Homo sapiens)', 'µM', 1.02),
  ('Cc1c(CC(N)=O)c2cc(OCC(=O)O)ccc2n1Cc1ccccc1', 'Phospholipase A2, membrane associated (Homo sapiens)', 'µM', 1.79),
  ('Cc1c(CC(N)=O)c2c(OCC(=O)NN)cccc2n1Cc1ccccc1', 'Phospholipase A2, membrane associated (Homo sapiens)', 'µM', 0.422);

IC50 in this record for "Cc1c(CC(N)=O)c2ccc(OCCCC(N)=O)cc2n1Cc1ccccc1" : 5.83

# IC50 of "NC(=O)Cc1cn(Cc2ccccc2)c2ccc(OCCCC(=O)O)cc12" = 0.18

Form: compound = "Cc1c(CC(N)=O)c2c(O)cccc2n1Cc1ccccc1" ; IC50 = 8.28

----------
Target: Phospholipase A2, membrane associated (Homo sapiens)
Sequence (whole entry): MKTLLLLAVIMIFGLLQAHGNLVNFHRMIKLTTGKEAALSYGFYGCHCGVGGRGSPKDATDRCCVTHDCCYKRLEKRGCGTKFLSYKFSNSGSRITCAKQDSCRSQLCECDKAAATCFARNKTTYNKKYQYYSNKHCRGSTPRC
Assay: Inhibitory activity against contraction of Guinea pig lung tissue induced by PLA2.
Format: functional, tissue-based
Details: Cavia porcellus, target entry is the homologue from another species
Hi! Could you tag entries with Kb below 900 nM as true, and those at or above as false? Much appreciated.

INSERT INTO measurements (smi, class_assignment) VALUES
  ('Cc1c(CC(N)=O)c2cc(CCCC(=O)O)ccc2n1Cc1ccccc1', 'true'),
  ('Cc1c(CC(N)=O)c2cc(OCCC(=O)O)ccc2n1Cc1ccccc1', 'false');

**Query** Criterion: Kb strictly below 900 nM. Is it met by "Cc1c(CC(N)=O)c2c(OCC(=O)O)cccc2n1Cc1ccccc1-c1ccccc1" ?
**Result** true

**Query** Is the reported Kb for "CCc1c(CC(N)=O)c2cc(OCCCP(=O)(O)O)ccc2n1Cc1cccc(Cl)c1" strictly below 900 nM?
**Result** true

**Query** Given the entry "CCc1c(CC(N)=O)c2cc(OCCCP(=O)(O)O)c(C)cc2n1Cc1ccccc1" , would its reported Kb be below 900 nM?
**Result** true
